biological target: human PD-L1 expressed on cell surface (human, UniProt Q9NZQ7 19-290); test: cell-based or functional assay
Sequence (Q9NZQ7 19-290 limits assumed): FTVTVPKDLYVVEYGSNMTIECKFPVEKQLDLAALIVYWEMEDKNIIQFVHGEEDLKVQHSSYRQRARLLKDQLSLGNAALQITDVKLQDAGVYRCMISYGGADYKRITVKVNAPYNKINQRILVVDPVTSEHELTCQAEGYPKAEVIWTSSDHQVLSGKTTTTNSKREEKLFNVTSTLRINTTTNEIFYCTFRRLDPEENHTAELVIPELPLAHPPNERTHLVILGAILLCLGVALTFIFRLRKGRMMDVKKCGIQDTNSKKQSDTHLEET
REPORTED_METRIC: Internalization (%), FACS, 0.25 µg/ml, 4 h

BINDER	READOUT_VALUE
33E8 (antibody, human IgG1, V domains shown) VH: QSLEESGGDLVKPGASLTLTCTASGFYFSSGYDMSWVRQAPGKGLEWIASIFTTSGSTWYANWAKGRFTISKTSSTTVTLQMTSLTDADTATYFCTKDGVGSFYMNLWGPGTLVTVSS VL: LVMTQTPASVEVAVGGTVTIKCQASQTIGSNLAWYQQRPGQPPKLLIYKAFTLASGVSSRFKGSGSGTQFTLTISGVECADAATYYCQQGATRINIDNAFGGGTEVVVK	21.6%
55H3/76D6 (antibody, human IgG1, V domains shown) VH: QEQLEESGGGLVQPEGSLTLTCTVSGFSFSGDYYMSWVRQAPGKGLEWVASIYTGSLNSYYATWAKGRFTISLTSSTTVTLQMTSLTAADTATYFCARRNKNADYGHFDLWGPGTLVTVSS VL: YDMTQTPASVEVAVGGTVTIKCQASESINDRLAWYQQKPGQPPKLLIYAASTLASGVPSRFRGSGSGTDFTLTISDLECADAATYYCQQGWTVSSLDNAFGGGTEVVAM	20.6%
56H3 (antibody, human IgG1, V domains shown) VH: QEQLVESGGGLVQPEGSLTLTCTASEFSFSNNYYMSWVRQAPGKGLEWLGSIGIGSGITDYASWAKGRFTISKASSTTVTLQMTTLTAADTAIYFCARWTSGGGGFGLWGPGTLVTVSS VL: QVLTQTSSPVSAAVGGTVTINCQSSQTIYSDYLFWYQQKPGQPPKLLIYQTSTLASGVPSRFSGSGSGTQFTLTISGVQCDDAATYYCQGYYSGYIWTFGGGTEVVVN	16%
73C8 (antibody, human IgG1, V domains shown) VH: QEQLEESGGGLVQPEGSLTLTCTVSGFSFSGDYYMSWVRQAPGKGLEWVASIYTGSLNTYYATWAKGRFTISLTSSTTVTLQMTSLTAADTATYFCARRNKNADYGHFDLWGPGTLVTVSS VL: YDMTQTPASVEVAVGGTVTIKCQASQSINDRLAWYQQKPGQPPKLLIYAASTLASGVPSRFRGSGSGTDFTLTISDLECADAATYYCQQGWTVSSLDNAFGGGTEVVAM	15.6%
27A2 (antibody, human IgG1, V domains shown) VH: QEQLEESGGGLVQPEGSLTLTCTASGFSFSSNHYMSWVRQAPGKGLEWIGSIGVGSGITDYASWAKGRFTISKASSTTLTLQMTTLTAADTAIYFCARWTSGGGGFGLWGPGTLVTVSS VL: QVLTQTSSPVSAAVGGTVTINCQSSQTIYSDYLFWYQQTPGQPPKLLIYQTSTLASGVPSRFKGSGSGTEFTLTISEIQCDDAATYYCQGYYSGYIWTFGGGTEVVVR	18.3%
